- experiment: refractive index (Na D-line) (dimensionless)
- condition-set: 298.15 K; 101.33 kPa; Liquid; Standard Abbe refractometry
measurement-type: refractive index

CC(C)O ... 1.3752
CCCO ... 1.38306
CO ... 1.3264
CCCCCCCC[n+]1ccn(C)c1.F[B-](F)(F)F [1-methyl-3-octylimidazolium tetrafluoroborate] ... 1.43422
CCO ... 1.3592

* * *

- condition-set: 298.15 K; 101.33 kPa; Liquid; Capillary tube (Ostwald / Ubbelohde) method
measurement-type: log10(viscosity) (log10 of the value in mPa·s)

CCCO ... 0.29
CCO ... 0.03
CC(C)O ... 0.31
CO ... -0.27
CCCCCCCC[n+]1ccn(C)c1.F[B-](F)(F)F [1-methyl-3-octylimidazolium tetrafluoroborate] ... 2.56

* * *

- condition-set: 298.15 K; 101.33 kPa; Liquid; Vibrating tube method
measurement-type: mass density (kg/m3)

CCO ... 785.22
CO ... 786.63
CCCCCCCC[n+]1ccn(C)c1.F[B-](F)(F)F [1-methyl-3-octylimidazolium tetrafluoroborate] ... 1105.3
CC(C)O ... 780.95
CCCO ... 799.47

* * *

- condition-set: 298.15 K; 101.33 kPa; Liquid; Sing-around technique in a fixed-path interferometer
measurement-type: speed of sound (m/s)

CCCO ... 1207
CC(C)O ... 1140
CO ... 1102
CCO ... 1144
CCCCCCCC[n+]1ccn(C)c1.F[B-](F)(F)F [1-methyl-3-octylimidazolium tetrafluoroborate] ... 1491

Reference source for all entries: the NIST ThermoML archive (doi:10.1016/j.fluid.2006.01.008)
